This collection of values is drawn from PubChem BioAssay AID1362.

# Assay Comment: growth inhibition of WT strain, primary screen, mitochondrial fusion inhibitor project, WT and mutant strains, chemical genetic (AID 1362)
# Test Context: mitochondrial fusion phenotypic screen, mutant strain inhibition; at 10 µM
Screen size: about 190,000 compounds; about 4,000 (2.1%) were called active. The entries come from a sample that favours actives as a whole.
Observed Property: inhibition (%)
Supply the numeric figure in %, leaving out any unit text.

O=C(NC1(C(F)(F)F)NC(=O)N(C2CCCCC2)C1=O)c1ccco1 (stereo unspecified) ... -15.1
Cc1cc([N+](=O)[O-])nn1CCCC(=O)Nc1cccnc1Cl ... -23.5
O=C1OC(OC(=O)c2ccccc2Br)C(N2CCOCC2)=C1Cl (stereo unspecified) ... 5.3
O=C1NC(Nc2nc3ccccc3s2)(C(F)(F)F)C(=O)N1C1CCCCC1 (stereo unspecified) ... 15.8
FC(F)(F)c1cc(-c2ccco2)nc(N2CCOCC2)n1 ... 9.26

Q) Reported inhibition for FC(F)(F)c1cc(-c2cccs2)nc(NCc2ccco2)n1 : what is it?
A) 7.71

* * *

# Assay Comment: growth inhibition of WT strain, primary screen, mitochondrial fusion inhibitor project, WT and mutant strains, chemical genetic (AID 1362)
# Test Context: mitochondrial fusion phenotypic screen, mutant strain inhibition; at 10 µM
The campaign covered roughly 190,000 compounds. About 4,000 (2.1%) were called active. The sample holds actives, similar compounds and a random draw of the others, so the mix is not that of the screen.
inhibition values for the compounds below.
Supply the numeric figure in %, leaving out any unit text.

COc1cc(Cl)c(C)cc1NC(=O)CSc1nnc(-c2ccco2)n1CC(C)C ... 39.5
Clc1ncn(CCOc2ccccc2)c1Cl ... -12.6

Q) Reported inhibition for Cn1nnnc1SCC(=O)NNC(=O)c1ccc(Br)cc1 : what is it?
A) 0.05

Q) What do you get for CCn1c(SCC(=O)Nc2cc(C)c(Cl)cc2OC)nnc1-c1ccco1 ?
A) 32.2

Q) What do you get for CCC1(C)Cc2c(sc3[nH]c(=S)n(Cc4ccccc4)c(=O)c23)CO1 (stereo unspecified) ?
A) -13.6

Q) What do you get for Cc1cc2ncn(CCCCOc3ccccc3)c2cc1C ?
A) 44.6

* * *

# Assay Comment: growth inhibition of WT strain, primary screen, mitochondrial fusion inhibitor project, WT and mutant strains, chemical genetic (AID 1362)
# Test Context: mitochondrial fusion phenotypic screen, WT strain, growth inhibition; at 10 µM
Screen size: about 190,000 compounds; about 4,000 (2.1%) were called active. Cut-off read from the data, not from the text of the source: active = inhibition above about 58%; inactive = the rest, inconclusive results apart; tested in S. cerevisiae. This excerpt belongs to a sample that is enriched for actives.
Mark one answer only. Choices: YES = active, NO = inactive

Cc1cc(C)cc(NC(=O)CSc2ccccc2)c1 ... NO
O=C(Nc1ccon1)c1sc2ccccc2c1Cl ... NO
CCCCN(CC)CCCNC(=O)c1ccc(CSc2nc3ccncc3[nH]2)cc1 ... NO
O=C(Nc1ccccc1N1CCCCC1)c1ccc2nccnc2c1 ... NO

Q) Hi, do you know how c1ccc(CC2CCN(c3nc4ccccc4n4cnnc34)CC2)cc1 came out in this test?
A) NO

Q) What do you get for O=C(Nc1ccccc1F)c1ccc(Cn2cc(Br)cn2)cc1 ?
A) NO

* * *

inhibition values for the compounds below.
# Assay Comment: growth inhibition of WT strain, primary screen, mitochondrial fusion inhibitor project, WT and mutant strains, chemical genetic (AID 1362)
# Test Context: mitochondrial fusion phenotypic screen, WT strain, growth inhibition; at 10 µM; stronger effect = higher value
About 4,000 (2.1%) of roughly 190,000 compounds were called active. Many of the other results were omitted from the sample, so actives are more common in it than they were.
Supply the numeric figure in %, leaving out any unit text.

Previously resolved entries follow.
COc1ccc(C2CC(=O)Nc3sc(=N)c4c(N)c(C#N)c(N)nc4c32)cc1OC (stereo unspecified) ... -16.8
COc1cccc(CC2(CO)CCCN(Cc3nc(-c4cccs4)oc3C)C2)c1 (stereo unspecified) ... 19.9

Q) Reported inhibition for CCCCN(CC)CCNC(=O)CCNC(=O)Cn1ccc2ccccc2c1=O : what is it?
A) -12.2

Q) What do you get for O=C(COC(=O)c1ccncc1)c1ccccc1 ?
A) -12.9
